Data origin, for the record: patent US20230235058A1

Target: chimeric BTLA of humanised-BTLA mice (human extracellular region, murine transmembrane and signaling … (human; mouse, UniProt Q7TSA3 184-306, limits assumed); also: test concentration or dose not given here
Sequence (Q7TSA3 other isoform, or with tags, fused parts or gaps mutant limits assumed): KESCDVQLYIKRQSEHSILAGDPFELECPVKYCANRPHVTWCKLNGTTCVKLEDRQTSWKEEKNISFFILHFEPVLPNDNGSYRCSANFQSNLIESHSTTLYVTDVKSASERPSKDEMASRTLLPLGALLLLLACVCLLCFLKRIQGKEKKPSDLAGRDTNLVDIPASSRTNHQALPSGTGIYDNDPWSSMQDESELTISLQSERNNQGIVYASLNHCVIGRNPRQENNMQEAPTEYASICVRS
Assay: cell-based or functional assay
READOUT_TYPE: AntiCD3/CD28 (CD4 T cell proliferation) repeat 2 (% inhibition)
Numbers only here, please. The scale is % inhibition.

Guide cases for AntiCD3/CD28 (CD4 T cell proliferation) repeat 2, answers given:
BINDER	EXPERIMENTAL_RESULT
6.2 (antibody, IgG1, V domains shown, mIgG1; also called clone 6.2; parent clone 6.2) VH: EVKLVESGGGLVKPGGSLKLSCAASGFTLSSYGMSWVRQIPEKRLEWVASIRSDGNTYYPDSVKGRFIISRDNARNILYLQMSSLRSEDTAMYYCTRGGYYGSSPYYWGQGTTLTVSS VL: DIVMSQSPSSLPVSVGEKISMTCKSSQSLLYSSNQKNYLAWYQQKPGQSPKLLIYWASTRDSGVPDRFIGSGSGTDFTLTINSVKAEDLAVYYCQQYYNYLTFGAGTKLELK	21
21C7 (antibody, IgG1, V domains shown, mIgG1) VH: QIQLQQSGPELVKPGASVKISCKASGYAFSSSWMNWVKKRPGKGLEWIGRIYPGDGDANYNGKFKGKATLTADKSSSTAYMQLSSLTSEDSAVYFCAGEGHYYGSGYRWYLDVWGTGTTVTVSS VL: DIQMTQSPASLSVSVGETVTITCRASENIYSNLAWYQQKQGKSPQLLVYAATNLADGVPSRFSGSGSGTQYSLKINSLQSEDFGSYYCQHFRGAPFTFGSGTKLEIK	-4
4H4 (antibody, IgG1, V domains shown, mIgG1) VH: QVQLQQSGAELARPGASVKLSCKASGYTFTSYGISWVKQRTGQGLEWIGEIYPRSGNTYYNEKFKGKATLTADKSSSTAYMELRSLTSEDSAVYFCARRRGAGDGFDYWGQGTTLTVSS VL: DIQMTQTTSSLSASLGDRVTISCSASQGISNYLNWYQQKPDGTVKLLIYYTSSLHSGVPSRFSGSGSGTDYSLTISNLEPEDIATYYCQQYSKLPFTFGSGTKLEIK	22
8C4 (antibody, IgG1, V domains shown, mIgG1) VH: DVQLQESGPGMVKPSQSLSLTCTVTGYSITSGYDWHWIRHFPGNKLEWMGYISYSGSTNYNPSLKSRISITHDTSKNHFFLKLNSVTTEDTATYYCARGTPVVAEDYFDYWGQGTTLTVSS VL: QAVVTQESALSTSPGETVTLTCRSSTGAVTTSNYANWVQEKPDHLFTGLIGATNNRAPGVPARFSGSLIGDKAALTITGAQTEDEAIYFCALWYSNHLVFGGGTKLTVLG	4
3A9 (antibody, IgG1, V domains shown, mIgG1) VH: QVQLKQSGAELVRPGASVKLSCKASGYTFTDYYINWVKQRPGQGLEWIARIYPGSGNTYYNEKFKGKATLTAEKSSSTAYMQLSSLTSEDSAVYFCARGYGNSDYWGQGTTLTVSS VL: DILLTQSPAILSVSPGERVSFSCRASQSIGTRIHWYQQRTNGSPRLLIKYASESISGIPSRFSGSGSGTDFTLSINSVESEDIADYYCQQSNSWPYTFGGGTKLEIK	9

IN: Look up AntiCD3/CD28 (CD4 T cell proliferation) repeat 2: 8B4 (antibody, IgG1, V domains shown, mIgG1) VH: QVQLQQSGAELARPGASVKLPCKASGYTFTSYGISWVKQRTGQGLEWIGEIYPRSGTTYYNEKFKGKATLTADKSSSTAYMELRSLTSEDSAVYFCARRISSGSGVDYWGQGTTLTVSS VL: DIQMTQTTSSLSASLGDRVTISCSASQGISNYLNWYQQKPDGTVKLLIYYTSSLHSGVPSRFSGSGSGTDYSLTISNLEPEDIATYYCQQYSELPWTFGGGTKLEIK
OUT: 4

IN: Look up AntiCD3/CD28 (CD4 T cell proliferation) repeat 2: 2.8.6 (antibody, V domains shown, mouse IgG1k hybridoma antibody; also called clone 2.8.6) VH: QVQLKESGPGLVAPSQSLSITCTVSGFSLTTYGVHWVRQSPGKGLEWLGVMWPGGRTSYNPAPMSRLSISKDNSKSQVFLKMNSLQTDDTAMYYCVRGDYEYDYYAMDYWGQGTSVTVSS VL: QIVLSQSPAILSASPGEKVTMTCRASSSVSYMHWYQQKPGSSPKPWIYATSNLASGVPARFSGSGSGTSYSLTISRMEAEDAATYYCHQWSSNPYTFGGGTKLEIK
OUT: 35
